Target or test system: human ether-à-go-go-related gene (hERG) potassium channel (human, UniProt Q12809);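 further: peak tail current of the secondary pulse compared with the same well before compound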
Sequence (Q12809 whole entry, looked up): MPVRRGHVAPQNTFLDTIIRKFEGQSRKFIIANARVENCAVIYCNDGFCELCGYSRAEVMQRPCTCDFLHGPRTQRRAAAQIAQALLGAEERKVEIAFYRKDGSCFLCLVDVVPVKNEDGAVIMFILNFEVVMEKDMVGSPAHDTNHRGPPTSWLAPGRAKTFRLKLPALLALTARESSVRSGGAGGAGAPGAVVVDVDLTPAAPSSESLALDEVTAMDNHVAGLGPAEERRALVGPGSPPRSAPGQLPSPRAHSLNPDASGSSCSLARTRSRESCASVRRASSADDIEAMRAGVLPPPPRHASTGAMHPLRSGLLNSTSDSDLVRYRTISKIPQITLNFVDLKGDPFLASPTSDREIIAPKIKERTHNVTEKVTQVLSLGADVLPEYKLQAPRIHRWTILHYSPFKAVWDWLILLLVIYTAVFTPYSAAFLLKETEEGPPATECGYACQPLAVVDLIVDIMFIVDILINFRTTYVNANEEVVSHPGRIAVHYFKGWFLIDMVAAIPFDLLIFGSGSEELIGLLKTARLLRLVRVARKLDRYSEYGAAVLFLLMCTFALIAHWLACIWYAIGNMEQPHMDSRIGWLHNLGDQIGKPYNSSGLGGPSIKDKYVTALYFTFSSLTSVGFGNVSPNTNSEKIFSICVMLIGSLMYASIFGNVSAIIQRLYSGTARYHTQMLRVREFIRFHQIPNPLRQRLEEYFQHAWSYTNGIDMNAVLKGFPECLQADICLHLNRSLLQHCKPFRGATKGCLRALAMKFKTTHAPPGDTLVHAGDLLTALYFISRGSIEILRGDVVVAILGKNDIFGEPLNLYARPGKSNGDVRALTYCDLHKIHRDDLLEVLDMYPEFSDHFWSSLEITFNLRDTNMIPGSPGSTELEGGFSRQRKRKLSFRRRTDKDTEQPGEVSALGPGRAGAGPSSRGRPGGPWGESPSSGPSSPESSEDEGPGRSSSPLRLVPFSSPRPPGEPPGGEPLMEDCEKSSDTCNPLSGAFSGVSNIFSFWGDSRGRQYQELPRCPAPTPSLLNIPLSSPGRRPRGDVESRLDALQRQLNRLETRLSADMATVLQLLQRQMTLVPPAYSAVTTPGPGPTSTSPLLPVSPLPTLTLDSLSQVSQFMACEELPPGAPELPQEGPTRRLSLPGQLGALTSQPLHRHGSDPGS
Assay info: primary screen, population patch clamp on CHO cells stably expressing hERG; higher = less effect of the substance
The campaign covered roughly 310,000 compounds. About 14,000 (4.5%) showed an effect of 50% or more. Effects have a minus sign here. The sample holds strong results, similar compounds and a random draw of the others, so the mix is not that of the screen.
Measured hERG current change (%, negative = inhibition) at 10uM, listed per entry for reference.
Endpoint label: hERG current change (%, negative = inhibition) at 10uM (%)

Molecule | Value reported
CCC(=O)Nc1cc(-c2nn(C)c(=O)c3ccccc23)ccc1OC | -11.4
CCOc1ccc(N2C(=O)CN=C2Nc2ccccc2F)cc1 | 5.08
COc1ccc(-c2nn(C)c(=O)c3ccccc23)cc1CNC(=O)NC1CCCCC1 | -26.5
CCOC(=O)N1CCN(C(=O)CSCC(=O)Nc2nc(-c3ccc(C)cc3)cs2)CC1 | -14.1
Cc1ccc(C)c2c1cc(C)c1nnc(SCC(=O)Nc3nc4c(s3)CCCC4)n12 | 1.01
O=C(CSc1nc2ccc(NC(=O)C3CCCCC3)cc2s1)NCC1CCCO1 (stereo not drawn) | 2.42
CCCS(=O)(=O)N1CCCC(C(=O)NCCN2CCOCC2)C1 (stereo not drawn) | 13.7
N#CC1(NC(=O)CSc2nc3ccccc3s2)CCCCC1 | -15.7
Cn1c(CCNC(=O)c2cccs2)nnc1SCC(=O)Nc1nc(-c2ccccc2)cs1 | -7.06
CCC(CC)NC(=O)COC(=O)c1ccc(OCC(=O)Nc2ccccc2OC)c(OC)c1 | 11.4
CCCC(=O)NCc1cc(-c2nn(C)c(=O)c3ccccc23)ccc1OC | 7.01
CCn1c(CCNC(=O)c2cccs2)nnc1SCC(=O)Nc1nc(-c2ccccc2)cs1 | -52
Cc1ccccc1C(=O)NCCc1nnc(SCC(=O)Nc2nc(-c3ccccc3)cs2)n1C | 7.36
CCn1c(SCC(=O)Nc2nc3c(s2)CCCC3)nnc1-c1ccccc1 | -56.2
COc1ccc(-c2nn(C)c(=O)c3ccccc23)cc1CNC(=O)C1CCCCC1 | -56.3
NC(=O)c1ccccc1NC(=O)C1CCCO1 (stereo not drawn) | 8.51
Cc1ccc2[nH]c3c(c2c1)CN(C(=O)CN1CCN(C(=O)c2ccco2)CC1)CC3 | -5.97
CCCS(=O)(=O)N1CCCC(C(=O)NCCCN2CCN(c3ccc(F)cc3)CC2)C1 (stereo not drawn) | -59.5
Cc1cccc(-c2nnc(SCC(=O)Nc3nc4c(s3)CCCC4)n2C)c1 | -37.3
Cc1ccc2[nH]c3c(c2c1)CN(C(=O)CN1CCN(Cc2ccc4c(c2)OCO4)CC1)CC3 | -54.8
CS(=O)(=O)N1CCCC(C(=O)NCCCN2CCC(Cc3ccccc3)CC2)C1 (stereo not drawn) | -33.5
O=C(NCCCN1CCC(Cc2ccccc2)CC1)C1CC(=O)N(C2CCCC2)C1 (stereo not drawn) | -34.8
O=C(O)c1cc(N2C(=O)C3CC=CCC3C2=O)ccc1NCc1cccnc1 (stereo not drawn) | 15
COCCN(C(=S)Nc1ccc(C(C)C)cc1)C(C)c1cccs1 (stereo not drawn) | 8.26
CCOC(=O)N1CCN(C(=O)CSCC(=O)Nc2nc(-c3ccccc3)cs2)CC1 | -50.5
Cc1ccc(-c2nnc(SCC(=O)Nc3nc4c(s3)CCCC4)n2C)cc1 | 6.99
O=C(CN1CCN(Cc2ccc3c(c2)OCO3)CC1)N1CCc2[nH]c3ccc(F)cc3c2C1 | -62.8
CC1(C)CC(=O)C(C=Nc2ccc(Cl)cn2)=C(O)C1 | 11.6
Cn1c(SCC(=O)Nc2nc3c(s2)CCCC3)nnc1-c1ccccc1 | -16.4
COc1ccc(-c2nn(C)c(=O)c3ccccc23)cc1NC(=O)Cn1nc(-c2ccccc2)c2ccccc2c1=O | 5.06
O=C(c1cc2cc(F)ccc2[nH]1)N1CCN(Cc2ccc3c(c2)OCO3)CC1 | -0.31
O=C(NC(=O)c1ccc(F)cc1)Nc1nc(-c2cccs2)cc(C(F)(F)F)n1 | 12.2
CCS(=O)(=O)N1CCCC(C(=O)NCCN2CCC(Cc3ccccc3)CC2)C1 (stereo not drawn) | -59.1
CCCS(=O)(=O)N1CCCC(C(=O)NCCCN2CCN(c3ccccc3F)CC2)C1 (stereo not drawn) | -21.1
CCCCN(CCCNC(=O)C1CCN(S(=O)(=O)CC)CC1)c1ccccc1 | -51.1
CCOC(=O)c1cc(C(O)(C(=O)OC)C(F)(F)F)c(/N=C/N(C)C)o1 (stereo not drawn) | -6.94
Oc1c(/C=C/C=C/C=Nc2ccccc2)sc(=S)n1Cc1ccccc1 | -5.14
COc1ccc(C)cc1S(=O)(=O)N1CCCC(N2CCOCC2)C1 (stereo not drawn) | 13.4
O=C(NCCCN1CCCCCC1)C1CC(=O)N(C2CCCC2)C1 (stereo not drawn) | 5.99

Source of measurements: paper PMC4336329
